Origin of the recorded values: patent US20110243928A1

Below is a list of entries, each paired with its recorded Mean ND50 for 2 assays value.
Target: T1, E. coli-expressed recombinant cynomolgus IL-13 (cynomolgus, UniProt Q5I6E4 21-132 (Macaca thibetana entry))
T1 chain: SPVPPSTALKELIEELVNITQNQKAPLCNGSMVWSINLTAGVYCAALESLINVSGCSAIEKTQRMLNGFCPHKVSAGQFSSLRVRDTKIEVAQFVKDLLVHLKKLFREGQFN
Assay: cell-based or functional assay
Write the value in µg/mL as a bare number.

Record excerpt, results attached:
{"columns": ["BINDER", "UNIT_TAG", "Mean ND50 for 2 assays"],
 "data": [
  ["monoclonal antibody 6A1 (antibody, IgG1, V domains shown, also called 6A1 parental mAb; parental mouse mAb 6A1) VH: EIQLQQSVAELVRPGASVRLSCTASGFYIKDTYMHWVIQRPEQGLEWIGTIDPANGNTKYVPKFQGKATITADTSSNTAYLRLSSLTSEDTAIYYCARSIYDDYHYDDYYAMDYWGQGTSVTVSS VL: DVLMTQTPLSLPVSLGDQASISCRSSQNIVHINGNTYLEWYLQKPGQSPKLLIYKISDRFSGVPDRFSGSGSGTDFTLKISRVEAEDLGVYYCFQGSHVPWTFGGGTKLEIK", "µg/mL", 0.078],
  ["L2+A1 (antibody, human IgG1, kappa, V domains shown, Humanised 6A1, VH construct A1 and VL construct L2; also called A1L2) VH: QVQLVQSGAEVKKPGSSVKVSCKASGFYIKDTYMHWVRQAPGQGLEWMGTIDPANGNTKYVPKFQGRVTITADESTSTAYMELSSLRSEDTAVYYCARSIYDDYHYDDYYAMDYWGQGTLVTVSS VL: DIVMTQSPLSLPVTPGEPASISCRSSQNIVHINGNTYLEWYLQKPGQSPRLLIYKISDRFSGVPDRFSGSGSGTDFTLKISRVEADDVGVYYCFQGSHVPWTFGQGTKLEIKR", "µg/mL", 0.12],
  ["L1+A1 (antibody, human IgG1, kappa, V domains shown, Humanised 6A1, VH construct A1 and VL construct L1, human gamma1 wild type / kappa constant regions; also called A1L1; humanised anti-IL-13 mAb L1+A1) VH: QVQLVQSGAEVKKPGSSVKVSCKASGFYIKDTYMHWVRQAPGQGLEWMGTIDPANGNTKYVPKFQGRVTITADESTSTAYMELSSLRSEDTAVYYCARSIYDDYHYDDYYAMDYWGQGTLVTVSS VL: DIVMTQSPLSLPVTPGEPASISCRSSQNIVHINGNTYLEWYLQKPGQSPRLLIYKISDRFSGVPDRFSGSGSGTDFTLKISRVEADDVGIYYCFQGSHVPWTFGQGTKLEIKR", "µg/mL", 0.078]
]}

Now take the following binder into account.
Qu. Give the value of Mean ND50 for 2 assays reported for the following: chimaeric 6A1 (antibody, human IgG1, V domains shown, Parent murine 6A1 V regions on human IgG1/k wild type C regions, expressed in CHO cells; also called 6A1c; 6A1 chimaeric antibody) VH: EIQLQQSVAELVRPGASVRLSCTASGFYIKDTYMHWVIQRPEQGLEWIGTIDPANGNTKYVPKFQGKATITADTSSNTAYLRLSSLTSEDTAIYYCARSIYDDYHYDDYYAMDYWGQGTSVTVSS VL: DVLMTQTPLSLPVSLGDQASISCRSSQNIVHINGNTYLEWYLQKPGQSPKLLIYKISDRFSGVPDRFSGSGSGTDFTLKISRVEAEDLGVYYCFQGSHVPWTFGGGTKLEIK
Ans. 0.059
